// values below are reported Average transmittance (700 nm to 400 nm) Transparent cured film
- ASSAY_DETAILS: Transmittance of transparent cured film
- Type: physicochemical
- CONDITION_SET: cured at exposure energy quantity 80 mJ/cm^2
Form entry: value (%) — number only.

Example compounds with recorded Average transmittance (700 nm to 400 nm) Transparent cured film:
CCCC1(CCC)c2cc(C(=NOC(C)=O)c3ccccc3C)ccc2-c2ccc([N+](=O)[O-])cc21: 99.3
CCCCCCC1(CCCCCC)c2cc(C(=O)c3ccc(F)cc3)ccc2-c2ccc(/C(CC(C)N(OC(C)=O)C(C)=O)=N\OC(C)=O)cc21 (stereo not drawn): 100.0
CCCC1(CCC)c2cc(C(=O)c3ccc([N+](=O)[O-])cc3)ccc2-c2ccc(C(=NOC(C)=O)C(C)C)cc21 (mixture of isomers): 100.0
CCn1c2ccc(/C(=N\OC(C)=O)c3ccc(OC(C)COC)cc3C)cc2c2cc([N+](=O)[O-])ccc21 (stereo not drawn) [Compound C-2, reference compound]: 95.1
CCCCCCC1(CCCCCC)c2cc(C(=O)C(=NOC(C)=O)c3cc(C)ccc3C)ccc2-c2ccc(C(=O)c3ccc([N+](=O)[O-])cc3)cc21: 99.4

Exercise: Identify measured Average transmittance (700 nm to 400 nm) Transparent cured film corresponding to CCCC1(CCC)c2cc(C(CCCSc3ccc(Cl)cc3)=NOC(C)=O)ccc2-c2ccc([N+](=O)[O-])cc21
Solution: 99.5
